Cited source: PubChem BioAssay AID2060487

test system: 997537-175-T-J1-PDC complex spheroid viability; test: Anticancer human tumor 997537-175-T-J1-PDC patient-derived colon adenocarcinoma cell line growth inhibition [GQUAD]; details: second compound 1 µM; first compound 0.316 µM; stronger effect = lower value;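 further: spheroids exposed to the agents for 7 days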
Rule: viability, T/C below 40% gives Satisfied. Equal to or above 40% gives Not satisfied.

>>> assigned_category("CC1COCCN1c1cc(-c2ccnn2C)c2ccnc(-c3ccn[nH]3)c2n1 (stereo not given) + CN(C)c1ccc(Nc2c3ccc(NC(=O)CCN4CCCC4)cc3nc3cc(NC(=O)CCN4CCCC4)ccc23)cc1")
"Not satisfied"

QUERY: Please check: viability, T/C for CC(=O)O[C@H]1C(=O)[C@@]2(C)[C@H]([C@H](OC(=O)c3ccccc3)[C@]3(O)C[C@H](OC(=O)[C@H](O)[C@@H](NC(=O)c4ccccc4)c4ccccc4)C(C)=C1C3(C)C)[C@]1(OC(C)=O)CO[C@@H]1C[C@@H]2O + CN(C)c1ccc(Nc2c3ccc(NC(=O)CCN4CCCC4)cc3nc3cc(NC(=O)CCN4CCCC4)ccc23)cc1 , strictly under 40% or not?
RESULT: Satisfied

QUERY: Please check: viability, T/C for CC(=O)O[C@H]1C(=O)[C@@]2(C)[C@H]([C@H](OC(=O)c3ccccc3)[C@]3(O)C[C@H](OC(=O)[C@H](O)[C@@H](NC(=O)c4ccccc4)c4ccccc4)C(C)=C1C3(C)C)[C@]1(OC(C)=O)CO[C@@H]1C[C@@H]2O + Cc1cnc(CNC(=O)c2c(=O)c3ccc(N4CCCN(C)CC4)nc3n3c2sc2ccccc23)cn1 , strictly under 40% or not?
RESULT: Not satisfied

QUERY: Please check: viability, T/C for Cc1[nH]c2ccccc2c1CCNCc1ccc(/C=C/C(=O)NO)cc1 + CN(C)c1ccc(Nc2c3ccc(NC(=O)CCN4CCCC4)cc3nc3cc(NC(=O)CCN4CCCC4)ccc23)cc1 , strictly under 40% or not?
RESULT: Satisfied

QUERY: Please check: viability, T/C for CC1COCCN1c1cc(C2(S(C)(=N)=O)CC2)nc(-c2ccnc3[nH]ccc23)n1 (stereo not given) + Cc1cnc(CNC(=O)c2c(=O)c3ccc(N4CCCN(C)CC4)nc3n3c2sc2ccccc23)cn1 , strictly under 40% or not?
RESULT: Not satisfied
